- Assay Text: in vitro
- Protocol Conditions: African green monkey, CC50 Vero76

# Compound, CC50
data = [
    ("CC(C)(C)c1ccc(C(=O)NC2CCCCC2)cc1 [MWAC-4000, 4-(tert-butyl)-N-cyclohexylbenzamide]", "> 50 µM"),
    ("CC(C)(C)c1ccc(C(=O)NC2CCOC2)cc1 (stereo not drawn) [MWAC-3509]", "> 50 µM"),
    ("CC(C)(C)c1ccc(C(=O)N[C@@H]2C[C@H]3CC[C@@H]2C3)cc1 (relative stereo) [MWAC-3989]", "> 50 µM"),
    ("CC(NC(=O)c1ccc(C(C)(C)C)cc1)c1ccncc1 (stereo not drawn) [MWAC-3510]", "> 48 µM"),
    ("CC(C)(C)c1ccc(C(=O)NC2CCS(=O)(=O)C2)cc1 (stereo not drawn) [MWAC-3506]", "> 50 µM"),
    ("CC(C)(C)c1ccc(C(=O)NC2CC3CCC2C3)cc1 (stereo not drawn) [MWAC-3508]", "> 50 µM"),
]

Values were extracted from paper PMC13065080.
